# credit: patent US12643885B2

Target: KRAS G12D (Homo sapiens, UniProt P01116, G12D)
Sequence (P01116 with tags, fused parts or gaps isoform P01116-2 G12D): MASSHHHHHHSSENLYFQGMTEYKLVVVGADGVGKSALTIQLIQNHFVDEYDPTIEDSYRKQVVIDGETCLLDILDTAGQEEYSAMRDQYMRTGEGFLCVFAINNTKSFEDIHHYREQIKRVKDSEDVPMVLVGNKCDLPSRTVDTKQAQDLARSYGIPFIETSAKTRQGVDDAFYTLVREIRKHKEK
Test: Inhibitory activity on KRAS G12D nucleotide (GDP-GTP) exchange reaction in vitro (SOS1-dependent, BODIPY FL GDP)
Conditions: BODIPY FL GDP-bound recombinant KRAS G12D, 25° C. 1 hour preincubation, then SOS1 and GMPPNP 30 minutes at room temperature
READOUT TYPE: pIC50
Please keep in mind that pIC50 is minus log10 of the molar concentration; only the number is needed.

The reported pIC50 of the compound `CN(C(=O)c1c(Cl)nc(CNc2cc(C(C)(C)C)c(Cl)cc2O)n1C)C1CNC1` was 4.92

The reported pIC50 of the compound `CC(C)N1CC[C@@H](n2c(CNc3n[nH]c4cc(Cl)c(C(C)(C)C)cc34)nc(Cl)c2C(=O)N(C)CCN)C1` was 4.45

The reported pIC50 of the compound C[C@@H]1CNC[C@@H]1N(C)C(=O)c1c(Cl)nc(CNc2n[nH]c3cc(Cl)c(C(C)(C)C)cc23)n1C (relative stereo) was 4.37

The reported pIC50 of the compound `CC(C)N1CC[C@@H](n2c(CNc3n[nH]c4cc(Cl)c(C(C)(C)C)cc34)nc(Cl)c2C(=O)N(C)C2CNC2)C1` was 5.42

The reported pIC50 of the compound C[C@H]1CNC[C@@H]1N(C)C(=O)c1c(Cl)nc(CNc2n[nH]c3cc(Cl)c(C(C)(C)C)cc23)n1C (relative stereo) was 4.77

The reported pIC50 of the compound `CC(C)N1CC[C@@H](n2c(CNc3cc(C(C)(C)C)c(Cl)cc3O)nc(Cl)c2C(=O)N(C)[C@@H]2CCNC2)C1` was 5.80

The reported pIC50 of the compound C[C@@H]1NC[C@H]1N(C)C(=O)c1c(Cl)nc(CNc2n[nH]c3cc(Cl)c(C(C)(C)C)cc23)n1C (relative stereo) was 4.36

The reported pIC50 of the compound `Cn1c(CNc2n[nH]c3cc(Cl)c(C(C)(C)C)cc23)nc(Cl)c1C(=O)N1CCCNCC1` was 4.42

The reported pIC50 of the compound `CN(C(=O)c1c(Cl)nc(CNc2cc(C(C)(C)C)c(Cl)cc2O)n1C)[C@@H]1CCNC1` was 4.48

The reported pIC50 of the compound `CC(C)N1CC[C@@H](n2c(CNc3cc(C(C)(C)C)c(Cl)cc3O)nc(Cl)c2C(=O)N(C)C2CNC2)C1` was 5.49
